- TGT: TR-α (Homo sapiens)
- Sequence (P10827 1-410 isoform P10827-2): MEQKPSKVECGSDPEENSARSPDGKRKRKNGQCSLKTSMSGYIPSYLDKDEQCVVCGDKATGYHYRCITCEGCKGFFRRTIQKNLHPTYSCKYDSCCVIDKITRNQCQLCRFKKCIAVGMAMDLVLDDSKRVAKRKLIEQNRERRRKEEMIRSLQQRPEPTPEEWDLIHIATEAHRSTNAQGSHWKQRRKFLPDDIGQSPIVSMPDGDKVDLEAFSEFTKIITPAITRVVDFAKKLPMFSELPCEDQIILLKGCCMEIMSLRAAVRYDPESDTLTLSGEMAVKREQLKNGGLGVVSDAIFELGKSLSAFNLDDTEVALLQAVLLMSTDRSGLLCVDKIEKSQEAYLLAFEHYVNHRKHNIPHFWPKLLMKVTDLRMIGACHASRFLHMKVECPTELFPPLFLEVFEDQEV
- PROTOCOL NOTES: In vitro TR-α activity (in-house protocol)
- Type: cell-based
- DETAILS: Conc. 100 nM
TEST READOUT: TR-α Fold Induction w.r.t T3(100 nm)
Note: the reply should be a number with no unit written.

CC(C)(C)c1cc(Oc2c(Cl)cc(N(CC(=O)O)C(=O)Oc3ccc(O)cc3)cc2Cl)ccc1O ... 130.68

TR-α (Homo sapiens) TR-α Fold Induction w.r.t T3(100 nm) of CCOC(=O)N(CC(=O)O)c1cc(Cl)c(Oc2ccc(O)c(-c3ccccc3)c2)c(Cl)c1 is 36.30

Entry O=C(O)CN(C(=O)Oc1ccc(O)cc1)c1cc(Cl)c(Oc2ccc(O)c(S(=O)(=O)N3CCCCCC3)c2)c(Cl)c1 under TR-α (Homo sapiens) had TR-α Fold Induction w.r.t T3(100 nm) of 35.93

Summary line: CC(C)(C)c1cc(Oc2c(Cl)cc(N(CC(=O)O)CC(=O)O)cc2Cl)ccc1O , TR-α (Homo sapiens), reported TR-α Fold Induction w.r.t T3(100 nm) = 62.95

Form: item CCOC(=O)N(CC(=O)O)c1cc(C)c(Oc2ccc(O)c(C(C)CC)c2)c(C)c1 (centres unmarked) ; test system TR-α (Homo sapiens); TR-α Fold Induction w.r.t T3(100 nm): 12.97

// returns TR-α Fold Induction w.r.t T3(100 nm) for Cc1cc(N(CC(=O)O)C(=O)Oc2ccc(O)cc2)cc(C)c1Oc1ccc(O)c(C(C)C)c1 with TR-α (Homo sapiens); value = 72.96

Form field TR-α Fold Induction w.r.t T3(100 nm) for item O=C(O)CN(C(=O)Oc1ccc(O)cc1)c1cc(Cl)c(Oc2ccc(O)c(S(=O)(=O)NC3CCC3)c2)c(Cl)c1 on TR-α (Homo sapiens): 32.52

Summary: O=C(O)CN(CC(=O)O)c1cc(Cl)c(Oc2ccc(O)c(C(=O)c3ccc(Cl)cc3)c2)c(Cl)c1 , TR-α (Homo sapiens), TR-α Fold Induction w.r.t T3(100 nm) = 25.77

Entry O=C(O)CN(CC(=O)O)c1cc(Cl)c(Oc2ccc(O)c(S(=O)(=O)N3CCCCC3)c2)c(Cl)c1 under TR-α (Homo sapiens) had TR-α Fold Induction w.r.t T3(100 nm) of 25.46

Entry Cc1cccc(C(=O)c2cc(Oc3c(Cl)cc(N(CC(=O)O)C(=O)Oc4ccc(O)cc4)cc3Cl)ccc2O)c1 under TR-α (Homo sapiens) had TR-α Fold Induction w.r.t T3(100 nm) of 18.11

Test item CC(C)c1cc(Oc2c(Cl)cc(N(CC(=O)O)C(=O)Oc3ccc(O)cc3)cc2Cl)ccc1O ; TR-α (Homo sapiens); reported TR-α Fold Induction w.r.t T3(100 nm) was 87.50

Lab entry: TR-α (Homo sapiens) assay, compound CCOC(=O)N(CC(=O)O)c1cc(Cl)c(Oc2ccc(O)c(C(C)(C)C)c2)c(Cl)c1 , TR-α Fold Induction w.r.t T3(100 nm) = 96.60

TR-α (Homo sapiens) TR-α Fold Induction w.r.t T3(100 nm) of CN(C)S(=O)(=O)c1cc(Oc2c(Cl)cc(N(CC(=O)O)C(=O)Oc3ccc(O)cc3)cc2Cl)ccc1O is 25.32

Form: item CCOC(=O)N(CC(=O)O)c1cc(Cl)c(Oc2ccc(O)c(C(=O)c3ccc(Cl)s3)c2)c(Cl)c1 ; test system TR-α (Homo sapiens); TR-α Fold Induction w.r.t T3(100 nm): 51.82

The observed TR-α Fold Induction w.r.t T3(100 nm) for CCOC(=O)N(CC(=O)O)c1cc(Cl)c(Oc2ccc(O)c(C(=O)c3cccc(Cl)c3)c2)c(Cl)c1 when tested with TR-α (Homo sapiens) stands at 12.70

TR-α Fold Induction w.r.t T3(100 nm) of O=C(O)CN(C(=O)Oc1ccc(O)cc1)c1cc(Br)c(Oc2ccc(O)c(S(=O)(=O)NC3CC4CCC3C4)c2)c(Br)c1 (centres unmarked) , assay on TR-α (Homo sapiens), is 17.15
